Listed below: Papp A→B values for each entry.
ASSAY_NAME: Apparent permeability from apical to basolateral side in human Caco2 cells by LC-MS/MS analysis
CONDITION_LABEL: Caco-2
Reply with just the number (in ×10⁻⁶ cm/s).

Past entries and their recorded results:
- COMPOUND: "COCCn1cc(C(=O)c2cccc3ccccc23)c2cccnc21"
  Papp A→B / ×10⁻⁶ cm/s: 26
- COMPOUND: "CCCCCn1cc(C(=O)c2cccc3ccccc23)c2ccncc21"
  Papp A→B / ×10⁻⁶ cm/s: 13

Could you tell me which Papp A→B is on file for Cc1c(C(=O)c2cccc3ccccc23)c2cccc3c2n1[C@H](CN1CCOCC1)CO3 [WIN-552122] ?
12.1

How about this compound: CCCCCCC(C)(C)c1ccc([C@@H]2C[C@H](O)CC[C@H]2CCCO)c(O)c1 [CP-55940]
5.7

How about this compound: COCCn1cc(C(=O)Nc2cccc3ccccc23)c2ccccc21
27
